Target: CNK1 PH-domain (CNKSR1) (Homo sapiens, UniProt Q969H4)
Construct: The PH-domain His-fusion proteins (CNK1 and AKT1) were expressed and immobilized on a NTA chip; made in house
Sequence (Q969H4 403-502 limits assumed): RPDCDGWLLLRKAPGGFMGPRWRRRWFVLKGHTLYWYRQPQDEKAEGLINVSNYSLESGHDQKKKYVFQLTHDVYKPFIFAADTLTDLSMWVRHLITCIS
Experiment: SPR binding assay (Biacore T100), CNK1 PH-domain
Conditions: date 12 09 13
Each entry below carries its recorded Surface Plasmon Resonance CNKSR1 binding (RU max).
Enter your answer as a number in RU * 100/Da; do not include the unit.

>>> value("O=C(O)/C=C/c1cc(NS(=O)(=O)c2cccs2)c2c(c1O)OCO2 [Compound 89]")
1.350

Quick one: Surface Plasmon Resonance CNKSR1 binding (RU max) for CCNC(=O)Cc1nn(Cc2nc(-c3ccc(C)cc3)cs2)c(=O)c2ccccc12 [Compound 78] ?
0.224

What do we get for Cc1ccc(-c2csc(Cn3nc(NS(=O)(=O)c4cccs4)c4ccccc4c3=O)n2)cc1 [Compound 5] ?
−0.695

What do we get for CCOC(=O)/C=C/c1c(O)c(O)cc(NS(=O)(=O)c2cccs2)c1SC [Compound 105] ?
−0.676

What do we get for Cc1ccc(-c2csc(Cn3nc(CC(O)CN)c4ccccc4c3=O)n2)cc1 (centres unmarked) [Compound 126] ?
−0.166

What do we get for CSc1c(NS(=O)(=O)c2cccs2)cc(O)c(O)c1/C=C/C(=O)O [Compound 106] ?
−0.928

What do we get for Cc1ccc(-c2csc(Cn3nc(CC(=O)NCC(N)=O)c4ccccc4c3=O)n2)cc1 [Compound 82] ?
1.304

What do we get for Cc1ccc(-c2csc(Cn3nc(CC(=O)NS(C)(=O)=O)c4ccccc4c3=O)n2)cc1 [Compound 127] ?
3.050

---

Target: CNK1 PH-domain (CNKSR1) (Homo sapiens, UniProt Q969H4)
Construct: The PH-domain His-fusion proteins (CNK1 and AKT1) were expressed and immobilized on a NTA chip; made in house
Sequence (Q969H4 403-502 limits assumed): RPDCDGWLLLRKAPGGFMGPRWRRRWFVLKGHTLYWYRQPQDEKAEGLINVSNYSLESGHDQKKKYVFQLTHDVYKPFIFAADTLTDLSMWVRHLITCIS
Assay: SPR binding assay (Biacore T100), CNK1 PH-domain
Conditions: Table 6; read-out: CNKS KD
REPORTED PROPERTY: Kd (µM)
Enter your answer as a number in µM; do not include the unit.

# example entries with known answers
>>> value("Cc1ccc(-c2csc(Cn3nc(CC=O)c4ccccc4c3=O)n2)cc1")
4.2
>>> value("Cc1ccc(-c2csc(Cn3nc(CC4OCCCO4)c4ccccc4c3=O)n2)cc1")
0.026
>>> value("CCOC(=O)Cc1nn(Cc2nc(-c3ccc(C)cc3)cs2)c(=O)c2ccccc12")
3.2
>>> value("CCNC(=O)Cc1nn(Cc2nc(-c3ccc(C)cc3)cs2)c(=O)c2ccccc12")
0.65
>>> value("Cc1ccc(-c2csc(Cn3nc(CC(=O)NCCC(N)=O)c4ccccc4c3=O)n2)cc1")
109

Quick one: Kd for Cc1ccc(-c2csc(Cn3nc(CC4OCC(=O)O4)c4ccccc4c3=O)n2)cc1 (stereo not shown) ?
0.27

What do we get for Cc1ccc(-c2csc(Cn3nc(NS(=O)(=O)c4cccs4)c4ccccc4c3=O)n2)cc1 ?
51.3

What do we get for Cc1ccc(-c2csc(Cn3nc(Cc4nccs4)c4ccccc4c3=O)n2)cc1 ?
4.12
